Entries annotated with measured remaining at 1 h, 1 μM
protocol: in vitro
setup.conditions: human, microsomes, pH 7.4
test.readout: remaining at 1 h, 1 μM (%)

INSERT INTO assay_data (compound, test_readout, value_unit, recorded_measurement) VALUES
  ('CC(=O)CC(c1ccccc1)c1c(O)c2ccccc2oc1=O (centres unmarked) [Warfarin, warfarin, reference compound]', 'remaining at 1 h, 1 μM', '%', 97),
  ('CC(C)NCC(O)COc1cccc2ccccc12 (centres unmarked) [Propranolol, propranolol, reference compound]', 'remaining at 1 h, 1 μM', '%', 72);

* * *

protocol: in vitro
setup.conditions: dog, microsomes, pH 7.4
Where a SMILES comes first, the peptide text is derived from it. [ ]: non-standard residue; d: D form. ξ: configuration not given here. ξTic = O=C(O)C1Cc2ccccc2CN1; ξOic = O=C(O)C1CC2CCCCC2N1
// remaining at 1 h, 1 μM lookup, one value per entry
test.readout: remaining at 1 h, 1 μM (%)

INSERT INTO measurements (compound, test_readout, value_unit, recorded_measurement) VALUES
  ('CC(=O)NCC(=O)N1Cc2ccccc2CC1C(=O)N1C(C(=O)N[C@@H](CCCCN)C(=O)N2Cc3ccccc3CC2C(=O)N2C(C(=O)NCC(=O)N3Cc4ccccc4CC3C(=O)N3C(C(=O)N[C@@H](CCCCN)C(=O)N4Cc5ccccc5CC4C(=O)N[C@@H](CCCCN)C(=O)N[C@@H](CCCCN)C(=O)N[C@@H](CCCCN)C(=O)N[C@@H](CCCCN)C(N)=O)CC4CCCCC43)CC3CCCCC32)CC2CCCCC21 (stereo partly shown) [FKAB-1Ge] (Ac-G[ξTic][ξOic]K[ξTic][ξOic]G[ξTic][ξOic]K[ξTic]KKKK-NH2)', 'remaining at 1 h, 1 μM', '%', 54),
  ('CC(C)NCC(O)COc1cccc2ccccc12 (stereo not shown) [Propranolol, propranolol, reference compound]', 'remaining at 1 h, 1 μM', '%', 24),
  ('CC(=O)CC(c1ccccc1)c1c(O)c2ccccc2oc1=O (stereo not shown) [Warfarin, warfarin, reference compound]', 'remaining at 1 h, 1 μM', '%', 94),
  ('CC(=O)N[C@@H](Cc1ccccc1)C(=O)N1Cc2ccccc2CC1C(=O)N1C(C(=O)N[C@@H](CCCCN)C(=O)N2Cc3ccccc3CC2C(=O)N2C(C(=O)N[C@@H](Cc3ccccc3)C(=O)N3Cc4ccccc4CC3C(=O)N3C(C(=O)N[C@@H](CCCCN)C(=O)N4Cc5ccccc5CC4C(=O)N[C@@H](CCCCN)C(=O)N[C@@H](CCCCN)C(=O)N[C@@H](CCCCN)C(=O)N[C@@H](CCCCN)C(N)=O)CC4CCCCC43)CC3CCCCC32)CC2CCCCC21 (stereo partly shown) [FKAB-1Gc] (Ac-F[ξTic][ξOic]K[ξTic][ξOic]F[ξTic][ξOic]K[ξTic]KKKK-NH2)', 'remaining at 1 h, 1 μM', '%', 46);
